Target: Escherichia coli RppH (Escherichia coli, UniProt P0A776)
Sequence (P0A776 whole entry): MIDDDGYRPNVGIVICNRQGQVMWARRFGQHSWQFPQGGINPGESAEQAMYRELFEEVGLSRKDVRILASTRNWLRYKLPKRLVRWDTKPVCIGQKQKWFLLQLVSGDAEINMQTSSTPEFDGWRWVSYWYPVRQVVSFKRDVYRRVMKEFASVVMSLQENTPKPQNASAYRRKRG
Experiment: Competition experiments: inhibition of RNA hydrolysis by nucleotides
Format: biochemical
Parameters: 0.1 mM substrate and 1 μM full-length RppH in case of nucleotides; decahistidine (N, cleaved yes); SUMO (N, cleaved yes); made in house; host or cells: E. coli BL21(DE3)
Conditions: concentration to achieve 2-fold inhibition of the reaction of RppH with pppAG, pppAG RNA
Protocol: RppH activity on pppAG and ppAG RNAs, NTPs, NDPs, and ppGpp was determined by kinetic analysis, as described in ref. ([6]). […] The quenched reaction samples were analyzed by anion-exchange chromatography on a 5 × 50 mm MonoQ column (GE Healthcare). […] The initial reaction rates were calculated based on the ratio between remaining substrate and reaction products using a linear fit model of GraphPad. […]
Parameter Measured: IC50

So for Nc1nc2c(ncn2[C@@H]2O[C@H](COP(=O)(O)OP(=O)(O)OP(=O)(O)O)[C@@H](O)[C@H]2O)c(=O)[nH]1 [GTP, guanosine triphosphate] , the logged IC50 turned out to be ~1.6 mM

---

Target: Escherichia coli RppH (Escherichia coli, UniProt P0A776)
Type: biochemical
Set-up: 0.1 mM substrate and 1 μM full-length RppH in case of nucleotides; decahistidine (N, cleaved yes); SUMO (N, cleaved yes); made in house; host or cells: E. coli BL21(DE3)
Conditions: pH 8.0; 1 mM substrate, 5 μM RppH, 37°C, 1 h
Protocol: Reactions for thin layer chromatography (TLC) were performed with 1 mM nucleotide substrates and 5 μM of the full-length RppH, in a 10-μl solution containing 10 mM MgCl2 and 50 mM buffer with different pH. […] Samples were analyzed on PEI-cellulose plates (F-254, Selecto Scientific) in 0.3 M potassium phosphate buffer, pH 7.5, for adenosine triphosphate (ATP), adenosine diphosphate (ADP), GTP, GDP, pppAG (RNA), ppGpp and pppGpp, and pH 3.3 for CTP and CDP, UTP and UDP. […]
Parameter Measured: hydrolysis by RppH (TLC)

Known results for molecules:
• Nc1ncnc2c1ncn2[C@@H]1O[C@H](COP(=O)(O)OP(=O)(O)O)[C@@H](O)[C@H]1O [ADP, adenosine diphosphate] = all
• Nc1nc2c(ncn2[C@@H]2O[C@H](COP(=O)(O)OP(=O)(O)O)[C@@H](OP(=O)(O)OP(=O)(O)O)[C@H]2O)c(=O)[nH]1 [ppGpp] = most
• Nc1nc2c(ncn2[C@@H]2O[C@H](COP(=O)(O)OP(=O)(O)O)[C@@H](O)[C@H]2O)c(=O)[nH]1 [GDP] = almost all
• O=c1ccn([C@@H]2O[C@H](COP(=O)(O)OP(=O)(O)O)[C@@H](O)[C@H]2O)c(=O)[nH]1 [UDP] = almost all

response.value for Nc1ccn([C@@H]2O[C@H](COP(=O)(O)OP(=O)(O)O)[C@@H](O)[C@H]2O)c(=O)n1 [CDP] (field: hydrolysis by RppH (TLC)) = almost all

---

target: Escherichia coli RppH (Escherichia coli); assay: Competition experiments: inhibition of RNA hydrolysis by nucleotides; format: biochemical; design: 0.1 mM substrate and 1 μM full-length RppH in case of nucleotides; decahistidine (N, cleaved yes); SUMO (N, cleaved yes); made in house; host or cells: E. coli BL21(DE3)
pIC50: −log10 of the molar value.
Parameter Measured: pIC50

// pIC50 value for Nc1nc2c(ncn2[C@@H]2O[C@H](COP(=O)(O)OP(=O)(O)OP(=O)(O)O)[C@@H](O)[C@H]2O)c(=O)[nH]1 [GTP, guanosine triphosphate] : ~2.39

---

Molecular target: UniProtKB P0A776
Assay: Competition experiments: inhibition of RNA hydrolysis by nucleotides
Assay type: biochemical
Design: 0.1 mM substrate and 1 μM full-length RppH in case of nucleotides; decahistidine (N, cleaved yes); SUMO (N, cleaved yes); made in house; host or cells: E. coli BL21(DE3)
Conditions: IC50, range over pppAG and ppAG RNA substrates, pppAG and ppAG RNA
Procedure: RppH activity on pppAG and ppAG RNAs, NTPs, NDPs, and ppGpp was determined by kinetic analysis, as described in ref. ([6]). […] The quenched reaction samples were analyzed by anion-exchange chromatography on a 5 × 50 mm MonoQ column (GE Healthcare). […] The initial reaction rates were calculated based on the ratio between remaining substrate and reaction products using a linear fit model of GraphPad. […]
Parameter Measured: IC50

Form field IC50 for item Nc1nc2c(ncn2[C@@H]2O[C@H](COP(=O)(O)OP(=O)(O)OP(=O)(O)O)[C@@H](O)[C@H]2O)c(=O)[nH]1 [GTP, guanosine triphosphate] on UniProtKB P0A776: 1600 to 4100 µM

Reference for the values: paper PMC7144940
